These measurements were taken from PubChem BioAssay AID179.

tested on: CEM cells HIV-1 protection, formazan growth assay; assay: NCI AIDS Antiviral Assay; conditions: measured here: growth of uninfected CEM cells
What pIC50 was measured for each of the following?
// pIC50 is dimensionless: -log10 of concentration (M)

Query COc1cc(C2c3cc4c(cc3OC(N3CCOCC3)C2C)OCO4)cc(OC)c1O (stereo unspecified) yields pIC50 of 5.07

Query `N#CC(C#N)=Cc1ccccc1Br` yields pIC50 of 5.48

Query `C=C1C(=O)O[C@@H]2C=C(C)C3=CC(=O)[C@](C)(C[C@H](OC(=O)/C(C)=C\C)[C@@H]12)O3` yields pIC50 of 6.65

Query `COc1cc(/C=C2\C=Cc3ccccc32)ccc1N(C)C` yields pIC50 of 4.62

Query `N#C/C(=C\c1cc(Br)c(O)c(Br)c1)c1cccnc1` yields pIC50 of 4.35

###

system: CEM cells HIV-1 protection, formazan growth assay; experiment: NCI AIDS Antiviral Assay; conditions: measured here: growth of uninfected CEM cells
What pIC50 was measured for each of the following?
// pIC50 is dimensionless: -log10 of concentration (M)

Query `CCOC(=O)c1cc(NC(=O)N(CCC#N)CCN(C(=O)N[C@@H](Cc2ccccc2)C(=O)N[C@@H](CC(C)C)C(=O)NC)c2ccccc2)ccc1OC` yields pIC50 of 4.53

Query `CCC[CH2][Sn]([CH2]CCC)([O]C(=O)c1ccc(OC)c(OC)c1OC)[O][Sn]([CH2]CCC)([CH2]CCC)[O]C(=O)c1ccc(OC)c(OC)c1OC` yields pIC50 of 6.06

Query COCC(=O)OC1CCn2c1nc1c2C(=O)C(C)=C(NC(C)=O)C1=N (centres undefined) yields pIC50 of 5.54

Query CCOc1cc2c(cc1O)CC[C@@H]1[C@@H]2CC[C@]2(C)C(N)CC[C@@H]12 (some centres undefined) yields pIC50 of 5.92

###

system: CEM cells HIV-1 protection, formazan growth assay; experiment: NCI AIDS Antiviral Assay;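 active = compounds giving half or more protection of infected cells from virus-caused growth loss, again on retest; inactive = the rest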
One label from this list, please: true = active, false = inactive

Recorded test outcome, item `COc1ccc(Cc2nnc3nc(OC)c(-c4ccc(OC)cc4)n3n2)cc1`
false

Recorded test outcome, item `CCOC(=O)NN(CCOS(=O)(=O)c1ccc(C)cc1)CCOS(=O)(=O)c1ccc(C)cc1`
false

Recorded test outcome, item COc1ccc2c(c1)CCN1C2CCN2C(=O)CCC21 (stereo unspecified)
false

Recorded test outcome, item CCOC(=O)CC(=O)N(c1ccc(OC)cc1)C(C(=O)OC)c1ccccc1 (stereo unspecified)
false

Recorded test outcome, item COc1cc2c(cc1OC)C(C(=O)c1cccc(OC)c1OC)C(=O)N(C)CC2 (stereo unspecified)
false

Recorded test outcome, item `CCCCCCC(=O)C/C(CCC(=O)N(Cc1ccccc1)Cc1ccccc1)=N\Nc1ccc([N+](=O)[O-])cc1[N+](=O)[O-]`
false

Recorded test outcome, item COc1ccc(NC2Oc3cc4c(cc3C(c3cc(OC)c(O)c(OC)c3)C2C)OCO4)cc1 (stereo unspecified)
false

Recorded test outcome, item O=C1CSC2=NC3=C(CSC/C3=C\c3ccc(Cl)cc3)C(c3ccc(Cl)cc3)N12 (stereo unspecified)
false

Recorded test outcome, item `Cc1ccc(C(=O)Nc2ccc(S(=O)(=O)O)c3cc(S(=O)(=O)O)cc(S(=O)(=O)O)c23)cc1NC(=S)Nc1cc(C(=O)Nc2ccc(S(=O)(=O)O)c3cc(S(=O)(=O)O)cc(S(=O)(=O)O)c23)ccc1C`
true

Recorded test outcome, item `C=Cc1cc[n+](CCCCC[n+]2ccc(C=C)cc2)cc1`
false

Recorded test outcome, item CCCCCNC(=O)C1C(=O)N(CCCCC)C(=O)/C1=N\N (stereo unspecified)
false

Recorded test outcome, item `COc1cc2c(c(OC)c1OC)C(=O)[C@@H](O)[C@H]2N`
false

Recorded test outcome, item CC(C#N)(c1ccccc1)N(CCc1ccccc1)C(=O)Oc1ccccc1 (stereo unspecified)
false

Recorded test outcome, item `CCOC(=O)c1ccc(CS(=O)(=O)c2ccc(OC)cc2)c([N+](=O)[O-])c1`
false

Recorded test outcome, item `Nc1nc(N)nc(CC(=O)O)n1`
false

Recorded test outcome, item `C[C@]12CC[C@@H]3c4cc(OCC(F)(F)F)c(O)cc4CC[C@H]3[C@@H]1CC[C@@H]2O`
false

Recorded test outcome, item `C[C@]12CC[C@H]3[C@@H](CC=C4C[C@@H](O)CC[C@@]43C)[C@@H]1CC[C@@H]2c1cnc[nH]1`
false

Recorded test outcome, item `CN(C)CCNC(=O)c1noc2c1CSc1ccccc1-2`
false

Recorded test outcome, item `O=C(O)CNCCCCCCNCC(=O)O`
false

Recorded test outcome, item Oc1ccc2ccccc2c1C1=NNC(c2ccc(Cl)cc2)C1 (stereo unspecified)
false

Recorded test outcome, item `NNC(=O)c1c(SCc2ccccc2)nc2c3ccccc3ccn12`
false

###

tested on: CEM cells HIV-1 protection, formazan growth assay; assay: NCI AIDS Antiviral Assay
Quantity kind: EC50

Query CC(NNC(=O)c1ccncc1)c1ccc(F)cc1 (stereo unspecified) yields EC50 of > 200 µM

Query CCOC(=O)CCC1(C(=O)OCC)CCCC1=O (stereo unspecified) yields EC50 of > 263 µM

Query `COC(=O)c1cc(C(=CCCN)c2cc(Cl)c(OC)c(C(=O)OC)c2)cc(Cl)c1OC` yields EC50 of > 200 µM

Query `Cn1c(=O)c2c(nc(C[N+]3([O-])CCOCC3)n2C)n(C)c1=O` yields EC50 of > 83.2 µM

Query `Cc1cc(N(CCC#N)S(C)(=O)=O)ccc1C=O` yields EC50 of > 933 µM

Query `CCOC(=O)N1CCN(c2ccc3ccc(N)nc3n2)CC1` yields EC50 of > 200 µM

Query `COc1cc([C@H]2Oc3c(OC)cc(/C=C/C(N)=O)cc3[C@@H]2C(N)=O)ccc1O` yields EC50 of > 200 µM

Query `COC(=O)/C(C#N)=C(\Nc1ccccc1)N1CCCCC1` yields EC50 of > 200 µM

Query `CCO/C=C/c1cc2c(c3c1-c1c(cc(OC)c(OC)c1OC)C3=O)OCO2` yields EC50 of > 6.46 µM

Query `N/N=C(\N)c1ccc(NC(=O)c2ccc(C(=O)Nc3ccc(/C(N)=N/N)cc3)cc2)cc1` yields EC50 of > 200 µM

Query `COc1ccc2c3csc4ccccc4c-3nc2c1` yields EC50 of > 200 µM

Query CC(=O)O[C@H]1CCc2c(cc(N)c3c2C(=O)C[C@]2(C)C([C@H](C)CCCC(C)C)CCC32C)C1(C)C (stereo partly specified) yields EC50 of > 200 µM

Query CCOC(=O)/C(=C(/N)C1OC(COC(c2ccccc2)(c2ccccc2)c2ccccc2)C2OC(C)(C)OC12)C1CC(=O)N(C)C1=O (stereo unspecified) yields EC50 of > 200 µM

Query `CCOC(=O)C1=C(C)OC(=O)[C@@]2(OC)C=C(Cl)[C@@]12C` yields EC50 of > 200 µM

Query `O=C(c1ccco1)N1CCCN(C(=O)c2ccco2)C1=S` yields EC50 of > 200 µM

Query COCC1OCCN1C (stereo unspecified) yields EC50 of > 200 µM

Query `O=C(O)/C(=C\c1ccc(F)cc1)c1ccccc1` yields EC50 of > 537 µM

Query `CC(C)(C)OC(=O)NCC(CNC(=O)OC(C)(C)C)C(N)=O` yields EC50 of > 407 µM

Query `Cc1cccc2c(NCCCN(C)C)c3c([N+](=O)[O-])ccc(C)c3nc12` yields EC50 of > 2 µM

Query `Cc1ccc(S(=O)(=O)N/N=C(\C(=O)Nc2cccc([N+](=O)[O-])c2)c2nc3ccc([N+](=O)[O-])cc3[nH]c2=O)cc1` yields EC50 of > 123 µM

Query `CC(C)(C)C1=CC(=N/N=c2\scc(-c3ccccc3)n2Cc2ccccc2)C=C(C(C)(C)C)C1=O` yields EC50 of > 5.62 µM

###

What IC50 was measured for each of the following?
system: CEM cells HIV-1 protection, formazan growth assay; experiment: NCI AIDS Antiviral Assay; details: measured here: growth of uninfected CEM cells

Tested system CEM cells HIV-1 protection, formazan growth assay; IC50 recorded for `CC(C)c1ccccc1SCc1cc(=O)cc(CSc2ccccc2C(C)C)o1` was 11.7 µM

Tested system CEM cells HIV-1 protection, formazan growth assay; IC50 recorded for `C/C(=C1/CCC/C(=C(/C)c2ccccc2)C1=O)c1ccccc1` was > 9.12 µM

Tested system CEM cells HIV-1 protection, formazan growth assay; IC50 recorded for `Cn1c(=O)c2c(ncn2CC(=O)N/N=C2\SCC(=O)N2Cc2ccccc2)n(C)c1=O` was > 74.1 µM

Tested system CEM cells HIV-1 protection, formazan growth assay; IC50 recorded for `Cc1cc(Cl)c(=O)n(-c2ccccc2)n1` was > 162 µM

Tested system CEM cells HIV-1 protection, formazan growth assay; IC50 recorded for `C=C1c2nc3ccccc3n2C=C(c2ccccc2)N1c1ccc([N+](=O)[O-])cc1` was 42.7 µM

Tested system CEM cells HIV-1 protection, formazan growth assay; IC50 recorded for `C=CC(C)(C)c1c(OC(C)=O)cc2oc3c(OC(C)=O)c(OC(C)=O)cc(CC=C(C)C)c3c(=O)c2c1O` was 120 µM

Tested system CEM cells HIV-1 protection, formazan growth assay; IC50 recorded for `Cc1ccc(CC[P+](=O)CCc2ccc(C)nc2)cn1` was > 200 µM

Tested system CEM cells HIV-1 protection, formazan growth assay; IC50 recorded for COc1ccc(-c2c3c(n(C4OC(CO)C(O)C(O)C4O)c(=S)c2C#N)CCCC3)cc1 (stereo not given) was 55 µM

Tested system CEM cells HIV-1 protection, formazan growth assay; IC50 recorded for CC1(C)CC(=O)C2=C(C1)NC(SCC(=O)O)=C(C#N)C2c1ccc(Br)cc1 (stereo not given) was 178 µM

Tested system CEM cells HIV-1 protection, formazan growth assay; IC50 recorded for `Cc1cccc(C(C)C)c1N1C(=O)C(=O)C(c2nc3ccccc3o2)C(=O)C1=O` was > 13.5 µM
